Reported pest or weed control at 500 ppm by item:
- Tested on: Rhizoctonia solani
- experimental.details: Test on protective effect against Rhizoctonia solani (rice pot test)
- Type: in vivo
- condition.details: Rhizoctonia solani, 120 h; 500 ppm active ingredient sprayed on rice (Kinmaze) at 2.5 to 3-leaf stage before inoculation; 5 days after inoculation; read-out: control level
metric.name: pest or weed control at 500 ppm (%)

compound | meas.value
CCC(C)c1c(Cl)nc(-n2cccn2)nc1NCC(F)(F)F (centres unmarked) | 100
CCC(C)c1cnc(-n2cccn2)nc1N1CCC(C)CC1 (centres unmarked) | 100
Cc1cc(C)n(-c2nc(C)c(C)c(NN)n2)n1 [Comparative Compound 2, reference compound] | 50
CCC(C)c1c(Cl)nc(-n2cccn2)nc1N1CCC(C)CC1 (centres unmarked) | 100
CCC(C)c1c(C#N)nc(-n2cccn2)nc1N1CCC(C)CC1 (centres unmarked) | 100
CCC(C)c1c(F)nc(-n2cccn2)nc1NCC(F)(F)F (centres unmarked) | 100
CCC(C)c1c(SC)nc(-n2cccn2)nc1N1CCC(C)CC1 (centres unmarked) | 100
CCC(C)c1c(NCC(F)(F)F)nc(-n2cccn2)nc1SC (centres unmarked) | 100
CCC(C)c1c(NCC(F)(F)F)nc(-n2cccn2)nc1C1CC1 (centres unmarked) | 100
CCC(C)c1c(Br)nc(-n2cccn2)nc1NCC(F)(F)F (centres unmarked) | 100
CCC(C)c1c(Cl)nc(-n2cc(Cl)cn2)nc1NCC(F)(F)F (centres unmarked) | 100

These entries and their values trace back to patent US20090042917A1.
